Origin of values: patent US11739100B2

target: recombinant Vps34 (Homo sapiens, UniProt Q8NEB9); assay: Phosphorylation of phosphatidylinositol (PI) by Vps34 in vitro, ADP detected by TR-FRET (HTRF Transcreener ADP); conditions: 10 μM ATP, 55 μg/ml PI, approximately 3 nM Vps34, 1 hour at ambient temperature; absolute IC50, mean of two independent experiments; read-out: IC50 activity range
Sequence (Q8NEB9 whole entry): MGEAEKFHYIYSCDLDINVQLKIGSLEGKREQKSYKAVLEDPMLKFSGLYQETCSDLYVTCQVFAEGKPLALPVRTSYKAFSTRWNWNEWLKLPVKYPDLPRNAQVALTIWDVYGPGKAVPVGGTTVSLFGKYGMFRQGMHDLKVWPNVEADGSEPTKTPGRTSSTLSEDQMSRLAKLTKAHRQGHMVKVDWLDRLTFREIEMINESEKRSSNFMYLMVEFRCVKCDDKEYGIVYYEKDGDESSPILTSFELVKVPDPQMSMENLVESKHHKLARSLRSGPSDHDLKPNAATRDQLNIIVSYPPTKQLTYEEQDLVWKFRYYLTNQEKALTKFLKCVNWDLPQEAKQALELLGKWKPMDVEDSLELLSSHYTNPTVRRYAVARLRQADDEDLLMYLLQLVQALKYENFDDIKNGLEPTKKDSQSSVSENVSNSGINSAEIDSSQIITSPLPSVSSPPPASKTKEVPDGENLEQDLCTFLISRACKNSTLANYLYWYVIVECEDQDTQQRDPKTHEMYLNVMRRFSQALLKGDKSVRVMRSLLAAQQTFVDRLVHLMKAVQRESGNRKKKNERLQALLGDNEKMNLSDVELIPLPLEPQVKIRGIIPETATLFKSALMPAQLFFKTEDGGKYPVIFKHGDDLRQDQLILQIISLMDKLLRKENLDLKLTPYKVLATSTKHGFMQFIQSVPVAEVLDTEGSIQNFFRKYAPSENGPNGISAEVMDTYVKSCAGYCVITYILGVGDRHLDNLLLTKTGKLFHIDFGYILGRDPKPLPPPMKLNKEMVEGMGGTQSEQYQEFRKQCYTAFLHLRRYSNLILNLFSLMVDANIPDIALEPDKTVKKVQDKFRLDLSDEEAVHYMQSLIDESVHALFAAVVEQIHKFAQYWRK
Measured IC50 of individual entries

Use the examples below as a reference point.
Report IC50 for C[C@@H]1COCCN1c1cc(=O)n2c(n1)N(CC(=O)Cc1ccccn1)[C@H](C(F)(F)F)CC2 [Example 67] please.
< 10 nM

Check CCC1CN(c2cc(=O)n3c(n2)N(CC(=O)c2ccccn2)[C@H](C(F)(F)F)CC3)CCO1 (single isomer, unassigned) [Example 172] too.
> 100 nM

Do the same for Cc1nnc(CN2c3nc(N4CCOC[C@H]4C)cc(=O)n3CC[C@H]2C(F)(F)F)o1 [Example 96] please
< 10 nM

---
What does the record list as IC50 for C[C@@H]1COCCN1c1cc(=O)n2c(n1)N(CCC(C)(C)F)[C@H](C(F)(F)F)CC2 [Example 267] ?
< 10 nM

Try the compound C[C@@H]1COCCN1c1cc(C(=O)CN2c3nc(N4CCOC[C@H]4C)cc(=O)n3CC[C@H]2C(F)(F)F)ccn1 [Example 303]
< 10 nM

Same lookup for C[C@@H]1COCCN1c1cc(=O)n2c(n1)N(CC(=O)c1nccs1)[C@H](C(F)(F)F)CC2 [Example 242] , please.
< 10 nM

Request: Cc1cc(CN2c3nc(N4CCOC[C@H]4C)cc(=O)n3CC[C@H]2C(F)(F)F)on1 [Example 101]
< 10 nM
